Each recorded value in this set is attributed to patent US20040142972A1.

Recorded measurements of pKi, one per entry
test.system: histamine receptor, H1 (Bos taurus)
Construct: from tissue; host or cells: bovine cerebellar membranes (per earlier reading)
Sequence (P30546 whole entry): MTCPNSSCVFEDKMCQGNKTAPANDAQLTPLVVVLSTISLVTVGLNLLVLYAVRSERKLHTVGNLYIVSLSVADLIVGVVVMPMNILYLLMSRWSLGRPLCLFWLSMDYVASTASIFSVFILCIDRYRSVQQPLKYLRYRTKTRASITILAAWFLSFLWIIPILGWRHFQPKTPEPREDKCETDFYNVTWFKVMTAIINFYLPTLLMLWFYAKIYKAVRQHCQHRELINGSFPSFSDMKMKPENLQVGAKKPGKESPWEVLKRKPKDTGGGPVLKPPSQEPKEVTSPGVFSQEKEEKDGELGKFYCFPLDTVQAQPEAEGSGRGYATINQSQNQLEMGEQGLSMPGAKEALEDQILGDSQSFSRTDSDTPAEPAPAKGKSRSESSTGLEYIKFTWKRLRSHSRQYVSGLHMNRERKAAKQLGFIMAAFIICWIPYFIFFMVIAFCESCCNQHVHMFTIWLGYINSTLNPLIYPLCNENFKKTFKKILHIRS
protocol.text: H1 binding assay, displacement of [3H]Pyrilamine, bovine cerebellar membranes
details: Series 11 compounds, Table 5; unit inferred; read-out: H1 Ki
pKi: −log10 of the molar value.
measured.metric: pKi

[[record]]
compound = "O=C(O)CCN1CCC(=C(c2ccccc2)c2ccccc2)CC1 [Compound 11a]"
test_system = "histamine receptor, H1 (Bos taurus)"
measured_metric = "pKi"
measured_result = 6.92

[[record]]
compound = "CC(C)OC(=O)CCN1CCC(=C(c2ccccc2)c2ccccc2)CC1 [Compound 11d]"
test_system = "histamine receptor, H1 (Bos taurus)"
measured_metric = "pKi"
measured_result = 6.83

[[record]]
compound = "CC(C)COC(=O)CCN1CCC(=C(c2ccccc2)c2ccccc2)CC1 [Compound 11e]"
test_system = "histamine receptor, H1 (Bos taurus)"
measured_metric = "pKi"
measured_result = 6.55

[[record]]
compound = "O=C(CCN1CCC(=C(c2ccccc2)c2ccccc2)CC1)OC1CCOC1 (stereo not shown) [Compound 11h]"
test_system = "histamine receptor, H1 (Bos taurus)"
measured_metric = "pKi"
measured_result = 7.05

[[record]]
compound = "O=C(CCN1CCC(=C(c2ccccc2)c2ccccc2)CC1)O[C@H]1CCOC1 [Compound 11g]"
test_system = "histamine receptor, H1 (Bos taurus)"
measured_metric = "pKi"
measured_result = 7.06

[[record]]
compound = "O=C(CCN1CCC(=C(c2ccccc2)c2ccccc2)CC1)OC1CCOCC1 [Compound 11i]"
test_system = "histamine receptor, H1 (Bos taurus)"
measured_metric = "pKi"
measured_result = 7.06

[[record]]
compound = "O=C(CCN1CCC(=C(c2ccccc2)c2ccccc2)CC1)OC1CCCC1.O=C(O)C(=O)O [Compound 11f]"
test_system = "histamine receptor, H1 (Bos taurus)"
measured_metric = "pKi"
measured_result = 6.38


====

test.system: cloned muscarinic - M2 binding site (Homo sapiens)
Sequence (P08172 1-466): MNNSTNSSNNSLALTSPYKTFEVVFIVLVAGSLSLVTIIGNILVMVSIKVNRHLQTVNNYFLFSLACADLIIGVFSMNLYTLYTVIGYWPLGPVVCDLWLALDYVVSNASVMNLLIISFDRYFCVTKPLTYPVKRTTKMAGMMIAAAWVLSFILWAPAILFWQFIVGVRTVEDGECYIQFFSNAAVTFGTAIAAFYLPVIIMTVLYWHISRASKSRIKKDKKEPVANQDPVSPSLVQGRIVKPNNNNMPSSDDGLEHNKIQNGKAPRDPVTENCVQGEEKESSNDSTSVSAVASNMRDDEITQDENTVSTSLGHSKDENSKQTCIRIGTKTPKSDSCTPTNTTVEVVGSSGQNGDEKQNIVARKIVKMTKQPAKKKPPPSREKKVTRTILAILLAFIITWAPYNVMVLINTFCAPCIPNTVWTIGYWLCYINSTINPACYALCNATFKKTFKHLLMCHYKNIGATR
protocol.text: Muscarinic M2 binding assay, [3H]-Scopolamine N-Methyl Chloride, human recombinant expressed in CHO cells
details: Series 11 compounds, Table 5; unit inferred; receptor source not given
Recorded measurements of IC50, one per entry
measured.metric: IC50 (µM)

[[record]]
compound = "O=C(CCN1CCC(=C(c2ccccc2)c2ccccc2)CC1)OC1CCOCC1 [Compound 11i]"
reported_relation = "="
measured_result = 0.221

[[record]]
compound = "O=C(O)CCN1CCC(=C(c2ccccc2)c2ccccc2)CC1 [Compound 11a]"
reported_relation = ">"
measured_result = 10

[[record]]
compound = "CC(C)OC(=O)CCN1CCC(=C(c2ccccc2)c2ccccc2)CC1 [Compound 11d]"
reported_relation = "="
measured_result = 0.829

[[record]]
compound = "CC(C)COC(=O)CCN1CCC(=C(c2ccccc2)c2ccccc2)CC1 [Compound 11e]"
reported_relation = "="
measured_result = 3.55

[[record]]
compound = "O=C(CCN1CCC(=C(c2ccccc2)c2ccccc2)CC1)OC1CCOC1 (centres unmarked) [Compound 11h]"
reported_relation = "="
measured_result = 2.14

